Tested on: A549/ATCC NSCLC
Assay: NCI-60 one-dose screen, 48 h (100 = growth as untreated, 0 = no growth, -100 = all killed)
Conditions: 10 µM unless noted
About 83,000 compounds went through this panel and 20% of them were active in at least one assay; those are over-represented in the sample as a whole.
# growth >= 20% gives 1 (yes), anything below gives 0 (no)

Exam item: decide whether the reported growth for "COc1cc(/C=C/c2cc(/C=C/c3ccc(O)c(OC)c3)n(C(=O)c3ccccc3Br)n2)ccc1O" is at least 20%. 1 (yes)

Next compound: "O=C(Nc1cccc(-n2ccc3c(NC(=O)c4ccccc4)nccc32)c1)c1ccc(N2CCOCC2)c(C(F)(F)F)c1" 0 (no)

# iterate: "COc1ccc(C(=O)O)cc1.[Ag]" 1 (yes)

One more compound: S=C(Nc1ccc(Cl)cc1)Nc1ccc(Cl)cc1 (tested in a mixture with another compound) 0 (no)

What do we get for "c1cn2cc(-c3ccc4ncn(C5CCCCC5)c4c3)nc(-c3ccc4c(c3)ncn4C3CCCCC3)c2n1" ? 0 (no)

Same lookup for "COc1ccc(-c2cc(-c3cn(-c4cccc(Cl)c4)nc3-c3ccc(OC)cc3)[nH]c(=S)n2)cc1" , please. 1 (yes)

Could you do the same for "CCCCCCCCCCCC1=NC(C)(C)CN1CCO" , please? 1 (yes)

Check CC(C)[C@@]12C[C@@H](OC(=O)C3CO3)[C@@](C)(O1)[C@@H]1CC[C@@H](C)[C@H]1[C@@H]2OC(=O)/C=C/c1ccccc1 (some centres undefined) too. 1 (yes)

Same question for "Clc1ccc(Cl)c(N=Cc2ccc3c(c2)OCO3)c1" please. 1 (yes)

Now this one: "C=C1C(=O)O[C@H]2[C@H]1CC/C(COC(=O)N[C@@H](Cc1c[nH]c3ccccc13)C(=O)OC)=C\CC[C@@]1(C)O[C@@H]21" 1 (yes)

How about this compound: CCOC(=O)C1=C(C(=O)OCC)N(c2cc(OC)c(OC)c(OC)c2)C(N)=C(C#N)C1c1cc(=O)[nH]c2ccccc12 (centres undefined) 1 (yes)

Same read-out for "Clc1ccc(-c2cnc3nonc3n2)s1" ? 1 (yes)

Moving on to the next compound: "CC(=O)Nc1c(Br)cc2c(c1Br)Cc1cc(Br)ccc1-2" 1 (yes)

Note, next up: "Cc1ccc(C(=O)CC(=O)C(F)(F)C(F)(F)C(F)(F)F)s1" 1 (yes)

Okay, and "COc1ccc(-c2cc(-c3ccc(OC)cc3)c3sc(=O)[nH]c3n2)cc1" ? 1 (yes)

Ok, now "O=C1/C(=C/c2ccccc2)SC(=Nc2ccccc2)N1Nc1ccccc1" 0 (no)

Now try "COc1ccc(Cl)cc1Nc1nc(C(F)(F)F)ccc1C(=O)NN" . 1 (yes)

Entry to check: "CN(C)c1nc(-c2cccs2)n2nc(-c3ccc(Cl)cc3)cc2n1" 0 (no)

Subsequent entry: "Cc1ccc(Nc2cc(Cl)c([N+](=O)[O-])cc2[N+](=O)[O-])cc1" 1 (yes)

----------
Test system: EKVX NSCLC
Assay: NCI-60 one-dose screen, 48 h (100 = growth as untreated, 0 = no growth, -100 = all killed)
Details: 10 µM unless noted
The panel holds about 83,000 compounds, 20% with a hit somewhere; the sample as a whole holds those more often.
test.readout: growth (%)
State the answer as a number, implicitly in %.

Sample "COc1cc(/C=C2\CN(C(=O)OC(C)(C)C)C/C(=C\c3ccc(O)c(OC)c3)C2=O)ccc1O" — what was its growth? 92.8

Here is the next molecule: "CS(=O)(=O)c1ccc(C(=O)N/N=C/c2cccc3ccccc23)cc1" 87.4

What about "O=C(CC(=O)C(F)(F)C(F)(F)C(F)(F)F)c1cc2ccccc2o1" ? 100

What do we get for "CCCCCCCCCCCCNC(=O)N[C@H](C(=O)N[C@H]1/C=C/CCNC(=O)/C=C/[C@H](C)NC1=O)C(C)C" ? 25

And what about the molecule "CN1CCC2(CC1)N=C(SCC(=O)Nc1cnc3ccccc3c1)C(c1ccc(Br)cc1)=N2" ? 37.9

Same again, this time with "Cn1c(-c2ccccc2)cc(=O)n1-c1ccccc1" 93.7

Please do the same for "Brc1ccsc1Br" as well. 114

And the next one, CCN1C(=O)C(C)C=C(C)C=C1C (stereo not given) ? 114

// query: "COC(=O)c1ccc2c(c1)nc(-c1cc3ccccc3[nH]c1=O)n2-c1cc(C(C)(C)C)[nH]n1" 85.6

Next: "CC1=C(/C=C/C(C)=C/C=C(C(=O)O)\C(C)=C\C(=O)O)C(C)(C)CCC1" 124

Data origin: PubChem BioAssay (NCI)
